# assay-target: N-terminal Xaa-Pro-Lys N-methyltransferase 1 (Homo sapiens) (UniProt Q9BV86)
# Sequence (Q9BV86 whole entry, looked up): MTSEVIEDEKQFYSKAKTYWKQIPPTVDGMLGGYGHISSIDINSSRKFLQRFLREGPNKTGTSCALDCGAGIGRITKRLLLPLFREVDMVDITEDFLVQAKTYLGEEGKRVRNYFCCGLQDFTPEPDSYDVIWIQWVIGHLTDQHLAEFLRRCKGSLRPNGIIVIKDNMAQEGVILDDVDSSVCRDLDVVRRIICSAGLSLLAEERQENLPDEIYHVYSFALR
# measurement-description: Confirmatory qHTS for Inhibitors of N-terminal methyltransferase 1 (NTMT1): MTaseGlo Assay (AID 1645874); also: nearly all actives have a fitted effect of over 65% in size
# test-settings: NTMT1 enzyme, MTase-Glo SAH luminescence; series mostly up to 100 µM
Inconclusive results are not listed. Activity calls are given as the source filed them. Calls follow the shape of the dose curve; as a rule, active = well fitted inhibition curve with a large enough effect; inconclusive = small, poorly fitted or top-dose-only effect; inactive = no such curve, though single readings can be large or run the other way.
The reply should be one of these categories: active, inactive

Here are 3 compounds together with their reported answers.
> print(dat)
                            chemical.string  category
1  Cc1cc(N2CCOCC2)cc2[nH]c(-c3c(NC[C@@H](O)c4cccc(Cl)c4)cc[nH]c3=O)nc12  inactive
2  COc1cc2c(NC3CCN(C(C)C)CC3)nc(C3CCCCC3)nc2cc1OCCCN1CCCC1  inactive
3  O=C(NCCCNc1nc(Nc2cccc(NC(=O)N3CCCC3)c2)ncc1I)c1cccs1    active

Fill in: this test's call for `C#Cc1cccc(Nc2ncnc3cc(OC)c(OCCCCCCC(=O)NO)cc23)c1` is ___
active

Fill in: this test's call for `C[C@@H](Oc1cc(-c2cnn(C3CCNCC3)c2)cnc1N)c1c(Cl)ccc(F)c1Cl` is ___
active

Fill in: this test's call for `OCCCNc1cc(-c2ccnc(Nc3cccc(Cl)c3)n2)ccn1` is ___
active

----------
# measurement-description: qHTS of pediatric cancer cell lines to identify multiple opportunities for drug repurposing: Primary screen for OHS-50 cells (AID 1347103); also: nearly all actives have a fitted effect of over 40% in size
# test-settings: OHS-50 osteosarcoma viability, CellTiter-Glo luminescence, 48 h; series mostly up to 57.3 µM
Results filed as inconclusive are left out. The source made the active and inactive calls. Calls follow the shape of the dose curve; as a rule, active = well fitted cell-killing curve with a large enough effect; inconclusive = small, poorly fitted or top-dose-only effect; inactive = no such curve, though single readings can be large or run the other way.
The reply should be one of these categories: 1 for active, -1 for inactive

Here are 5 compounds together with their reported answers.
> print(dat)
                                   compound  category
1  C[C@@H]1COC(Nc2ccc3ncnc(Nc4ccc(OCc5nccs5)c(Cl)c4)c3c2)=N1         1
2  COC(=O)Nc1nc2ccc(C(=O)c3ccc(F)cc3)cc2[nH]1         1
3  CCOc1ccccc1OCCNC(C)Cc1ccc(OC)c(S(N)(=O)=O)c1 (configuration not stated)        -1
4  CC[C@@H]1C(=O)N(C)c2cnc(Nc3ccc(C(=O)NC4CCC(N5CCN(CC6CC6)CC5)CC4)cc3OC)nc2N1C(C)C (some centres not stated)         1
5  O=C(CCCCCCC(=O)Nc1ccc([C@H]2O[C@@H](CSc3nc(-c4ccccc4)c(-c4ccccc4)o3)C[C@@H](c3ccc(CO)cc3)O2)cc1)NO         1

Fill in: this test's call for `O=C(O)c1ccc2cc(-c3ccc(O)c(C45CC6CC(CC(C6)C4)C5)c3)ccc2c1` is ___
1

Fill in: this test's call for `Nc1ccccc1NC(=O)c1ccc(CNc2nccc(-c3cccnc3)n2)cc1` is ___
1

Fill in: this test's call for `COc1cc2c(Oc3ccc(-c4cnc(Nc5ccc(F)cc5)n(C)c4=O)cc3F)ccnc2cc1OCCCN1CCOCC1` is ___
1

Fill in: this test's call for `O=C(c1ccc(Nc2nccc(-c3cc4ccccc4s3)n2)cc1)N1CCC(N2CCCC2)CC1` is ___
1

Fill in: this test's call for `Nc1nccc(Oc2ccc(NC(=O)c3c[nH]cc(-c4ccc(F)cc4)c3=O)cc2F)c1Cl` is ___
1

----------
The entries below are paired with their reported parasite growth, % of DMSO control.
# measurement-description: qHTS profiling of the MIPE4 collection as inhibitors of Plasmodium falciparum (3D7) proliferation (AID 743344);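 also: scaled between DMSO vehicle wells and 0.29 µM artemisinin as full inhibition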
# test-settings: P. falciparum 3D7 in erythrocytes, SYBR Green DNA fluorescence, 72 h; at 28.5 µM (top of the series) unless noted
Express your answer in %, writing the number without its unit.

Observe how each entry below is paired with its result.
> print(dat)
                                   compound                      assay.endpoint  value
1  C=C1C(=CC=C2CCCC3(C)[C@@H]([C@H](C)C=CC=CC(O)(CC)CC)CC[C@@H]23)C[C@@H](O)C[C@@H]1O (some centres undefined)  parasite growth, % of DMSO control   17.5
2  C[C@@H]1COC(Nc2ccc3ncnc(Nc4ccc(OCc5nccs5)c(Cl)c4)c3c2)=N1  parasite growth, % of DMSO control      6
3  CC1(C)O[C@@H]2C[C@@H]3[C@H]4C[C@@H](F)C5=CC(=O)C=C[C@]5(C)[C@@]4(F)[C@@H](O)C[C@]3(C)[C@]2(C(=O)CO)O1  parasite growth, % of DMSO control   53.6

Return parasite growth, % of DMSO control (reported value) for this compound: `NC1(Cc2ccc(Cl)cc2)CCN(c2ncnc3[nH]ccc23)CC1`
19.2

----------
# Test system: Zika virus NS2B-NS3 protease (linked construct)
# measurement-description: Primary screen NINDS Rhodamine qHTS for Zika virus inhibitors (AID 1347160); also: nearly all actives have a fitted effect of over 55% in size
# test-settings: purified NS2B-NS3 protease, Rhodamine110 substrate fluorescence; series mostly up to 57.1 µM
Inconclusive results are not listed. Active and inactive are the calls of the source. The call rests on the fitted dose curve; in most records, active means well fitted inhibition curve with a large enough effect; inconclusive means small, poorly fitted or top-dose-only effect; inactive means no such curve, though single readings can be large or run the other way.
The reply should be one of these categories: YES = active, NO = inactive

Here are 4 molecules together with their reported answers.
> print(dat)
                                   molecule                              assay.target  category
1  O=C(CCCCCCNC(=O)c1cnc(N(c2ccccc2)c2ccccc2)nc1)NO  Zika virus NS2B-NS3 protease (linked construct)        NO
2     CCNC(=O)Nc1ccc2ncc(Nc3ccc(C)cc3)nc2n1  Zika virus NS2B-NS3 protease (linked construct)       YES
3           Clc1cccc(-c2nnnn2Cc2cccnc2)c1Cl  Zika virus NS2B-NS3 protease (linked construct)        NO
4  Nc1ncnc2c1c(-c1cccc(OCc3ccccc3)c1)cn2C1CC(CN2CCCC2)C1 (stereo not given)  Zika virus NS2B-NS3 protease (linked construct)        NO

Fill in: this test's call for `O=C(Nc1cc(C(F)(F)F)cc(C(F)(F)F)c1)c1cc(Cl)ccc1O` is ___
YES

Fill in: this test's call for `CC(C)CC(=O)Nc1n[nH]c2c1CN(C(=O)C1CCN(C)CC1)C2(C)C` is ___
NO

----------
# Tested on: PA-1
# measurement-description: Primary qHTS to identify gynecologic anti-cancer compounds using libraries of approved drugs and bioactive compounds (AID 1345084); also: nearly all actives have a fitted effect of over 55% in size
# test-settings: Gynecologic cancer cell panel viability, ATPlite luminescence, 48 h; series mostly up to 57.5 µM
Inconclusive results are not listed. The source made the active and inactive calls. The call rests on the fitted dose curve; in most records, active means well fitted cell-killing curve with a large enough effect; inconclusive means small, poorly fitted or top-dose-only effect, or effect the other way; inactive means flat fitted curve, though single readings scatter.
The reply should be one of these categories: T for active, F for inactive

Here are 3 compounds together with their reported answers.
> print(dat)
                                   compound  category
1  Clc1cccc(-n2nnnc2NCc2ccccc2Oc2ccccn2)c1Cl         F
2  CCOc1ccccc1OCCNC(C)Cc1ccc(OC)c(S(N)(=O)=O)c1 (stereo not given)         F
3  COC(=O)Nc1nc2ccc(C(=O)c3ccc(F)cc3)cc2[nH]1         T

Fill in: this test's call for `C=CC(=O)Nc1cccc(Oc2nc(Nc3ccc(N4CCN(C)CC4)cc3OC)ncc2Cl)c1` is ___
F

Fill in: this test's call for `c1ccc2c(CCNc3ccc(Nc4ccncc4)cc3)c[nH]c2c1` is ___
T

Fill in: this test's call for `Cc1ccc(C(=O)Nc2cccc(C(F)(F)F)c2)cc1-c1ccc2nc(NCCN3CCOCC3)ncc2c1` is ___
T

Fill in: this test's call for `Cc1cn(-c2cc(NC(=O)c3ccc(C)c(Nc4nccc(-c5cccnc5)n4)c3)cc(C(F)(F)F)c2)cn1` is ___
T

Fill in: this test's call for `COc1cc(C(=O)NS(=O)(=O)c2ccccc2C)ccc1Cc1cn(C)c2ccc(NC(=O)OC3CCCC3)cc12` is ___
F

Fill in: this test's call for `COc1ccc(F)c(F)c1C(=O)c1cnc(NC2CCN(S(C)(=O)=O)CC2)nc1N` is ___
T

Fill in: this test's call for `COc1ccc2c(OCc3nnc4ccc(-c5ccccc5)nn34)ccnc2c1` is ___
F

Fill in: this test's call for `COc1cc2c(Oc3ccc(NC(=O)C4(C(=O)Nc5ccc(F)cc5)CC4)cc3F)ccnc2cc1OCCCN1CCOCC1` is ___
T

Fill in: this test's call for `CC(C)(O)CCc1ccc(OCc2cc(-c3cccc(OC(F)F)c3)c3ncccc3c2)cc1` is ___
F

Fill in: this test's call for COc1ccc(C(=O)CC2(O)C(=O)Nc3c(Cl)ccc(Cl)c32)cc1 (stereo not given) is ___
T

Fill in: this test's call for `Nc1ncnc2c1c(-c1cnc3[nH]ccc3c1)nn2C1CCCC1` is ___
T

Fill in: this test's call for `CCN(CC)CCNC(=O)c1ccc2nc(-c3ccccc3)c(-c3ccc(CN4CCC(n5c(=O)[nH]c6ccccc65)CC4)cc3)nc2c1` is ___
F
